Source: patent US20200347144A1

# MEASURED TARGET: T1, mouse 4-1BB protein (extracellular domain) (mouse, UniProt P20334 24-187)
# T1 construct: extracellular domain; also called mouse 4-1BB-his; mouse 4-1BB-hFc protein
# T1 sequence (looked up): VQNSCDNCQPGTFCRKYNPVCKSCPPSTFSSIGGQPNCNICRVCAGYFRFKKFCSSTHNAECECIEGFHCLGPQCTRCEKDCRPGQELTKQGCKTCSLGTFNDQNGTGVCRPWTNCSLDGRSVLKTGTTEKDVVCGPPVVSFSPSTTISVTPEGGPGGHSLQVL
# METHOD SUMMARY: ELISA, coated mouse 4-1BB; Ab 2 ug/ml
QUANTITY KIND: OD450 nm (OD450 nm)
Reply with just the number (in OD450 nm).

Illustrative cases are given below, each with its answer.
BINDER	OD450 nm / OD450 nm
172E3E3 (antibody, V domains shown) VH: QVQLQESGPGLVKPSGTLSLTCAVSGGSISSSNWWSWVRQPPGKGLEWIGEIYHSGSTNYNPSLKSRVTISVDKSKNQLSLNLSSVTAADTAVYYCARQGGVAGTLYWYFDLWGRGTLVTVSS VL: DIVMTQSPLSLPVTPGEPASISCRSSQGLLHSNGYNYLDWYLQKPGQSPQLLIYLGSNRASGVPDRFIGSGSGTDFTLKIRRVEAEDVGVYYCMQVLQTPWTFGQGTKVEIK	0.12
118F3A2 (antibody, V domains shown) VH: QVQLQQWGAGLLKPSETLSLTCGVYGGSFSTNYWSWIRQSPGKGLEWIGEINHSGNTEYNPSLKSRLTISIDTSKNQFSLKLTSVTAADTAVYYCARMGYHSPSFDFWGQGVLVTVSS VL: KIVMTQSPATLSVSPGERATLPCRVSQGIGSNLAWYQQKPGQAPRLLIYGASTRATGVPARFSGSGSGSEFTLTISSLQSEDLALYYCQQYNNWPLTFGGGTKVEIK	0.12
57B3D10 (antibody, V domains shown, also called 4-1BB fully human antibody 57B3D10) VH: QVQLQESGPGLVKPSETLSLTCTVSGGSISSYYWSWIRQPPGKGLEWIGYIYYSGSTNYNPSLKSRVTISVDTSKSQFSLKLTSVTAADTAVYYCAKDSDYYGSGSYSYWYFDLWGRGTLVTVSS VL: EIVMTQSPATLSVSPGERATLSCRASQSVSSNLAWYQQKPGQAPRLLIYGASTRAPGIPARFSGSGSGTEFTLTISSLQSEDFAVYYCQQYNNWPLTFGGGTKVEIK	0.1
170D7F2 (antibody, V domains shown) VH: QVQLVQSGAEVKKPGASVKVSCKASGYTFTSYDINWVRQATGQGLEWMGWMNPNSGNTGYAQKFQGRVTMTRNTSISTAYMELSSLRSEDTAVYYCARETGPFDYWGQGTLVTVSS VL: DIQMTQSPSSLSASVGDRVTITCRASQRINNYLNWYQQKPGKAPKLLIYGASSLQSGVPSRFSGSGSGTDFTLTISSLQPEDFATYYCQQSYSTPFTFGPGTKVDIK	0.11

## Input Can you share its OD450 nm? I mean this binder: 113F6C6 (antibody, V domains shown, also called 4-1BB fully human antibody 113F6C6; 113F6F6) VH: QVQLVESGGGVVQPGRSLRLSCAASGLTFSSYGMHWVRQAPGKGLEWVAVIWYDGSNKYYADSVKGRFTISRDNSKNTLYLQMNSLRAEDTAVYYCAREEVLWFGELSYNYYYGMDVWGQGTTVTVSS VL: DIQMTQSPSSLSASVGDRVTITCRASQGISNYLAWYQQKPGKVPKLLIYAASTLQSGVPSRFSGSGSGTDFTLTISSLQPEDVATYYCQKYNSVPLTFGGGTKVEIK
## Output 0.18
